Origin of values: the RNAGym collection of RNA variant scans (doi:10.7554/elife.80360)

B1: Hairpin Ribozyme (parent)
chain: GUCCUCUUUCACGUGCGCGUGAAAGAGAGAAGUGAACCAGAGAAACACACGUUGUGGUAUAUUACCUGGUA

- Variants of: B1
- Assay text: self-cleavage, relative activity (ratio to wild type); higher = more cleavage; co-transcriptional
Endpoint: self-cleavage
Give bare numbers.

Before answering, review these 3 worked examples.
[[record]]
variant_identifier = "A36G U60A"
readout_number = 0.779

[[record]]
variant_identifier = "G27C A71G"
readout_number = 0.143

[[record]]
variant_identifier = "G1C C4G"
readout_number = 0.301


Okay, here is my list. What is self-cleavage for each of these?
1. U5A C10A
2. C16G U55G
3. A22U U62A
4. A44G U63A
5. U8G A61G
6. G40A U60G
7. C10G A41G
8. C12U A28C

Reply:
1: 0.188; 2: 0.247; 3: 0.161; 4: 0.207; 5: 0.0213; 6: 0.214; 7: 0.734; 8: 0.437
